The following molecules are listed with their measured T/C values.
Test system: CD2F1 mice, L1210 leukemia ip, survival T/C
test_summary: NCI In Vivo Anticancer Drug Screen. Data for tumor model L1210 Leukemia (intraperitoneal) in CD2F1 (CDF1) mice
test_context: endpoint: mean survival time; dose: 6.25 mg/kg/injection; schedule: Q01DX009 (ip); vehicle: saline; higher = longer survival
Toxic doses and inconclusive results are not listed.

{"columns": ["molecule", "T/C"],
 "data": [
  ["COc1ccc2c(c1)N(CC(C)C[N+](C)(C)CCCCCCCCCC[N+](C)(C)CC(C)CN1c3ccccc3Sc3ccc(OC)cc31)c1ccccc1S2 (configuration not stated)", "100 % of control"],
  ["CN(C)c1ccc(C(O)C(N)=O)cc1 (configuration not stated)", "94 % of control"],
  ["c1cc(-c2cc3ccc(C4=NCCN4)cc3[nH]2)ccc1C1=NCCN1", "124 % of control"],
  ["Cc1c(N)nc(C(CC(N)=O)NCC(N)C(N)=O)nc1C(=O)NC(C(=O)NC(C)C(O)C(C)C(=O)NC(C(=O)NCCc1nc(-c2nc(C(=O)NCCCNCCCc3ccccn3)cs2)cs1)C(C)O)C(OC1OC(CO)C(O)C(O)C1OC1OC(CO)C(O)C(OC(N)=O)C1O)c1cnc[nH]1 (configuration not stated)", "111 % of control"],
  ["Cc1cn(C2CC3[O][Sn]([c]4ccccc4)([c]4ccccc4)[O]CC3O2)c(=O)[nH]c1=O (configuration not stated)", "109 % of control"],
  ["OCCN1CCN(CC/C=C2\\c3ccccc3Sc3ccc(Cl)cc32)CC1", "116 % of control"],
  ["CC(=O)OCC1OC(N2CN=C(N)NC2=O)C(OC(C)=O)C1OC(C)=O (configuration not stated)", "108 % of control"]
]}

----------
Test system: CD2F1 mice, L1210 leukemia ip, survival T/C
test_summary: NCI In Vivo Anticancer Drug Screen. Data for tumor model L1210 Leukemia (intraperitoneal) in CD2F1 (CDF1) mice
test_context: endpoint: mean survival time; dose: 400.0 mg/kg/injection; schedule: Q01DX001 (ip); vehicle: Klucel (hydroxypropylcellulose) (HPC); higher = longer survival
Toxic doses and inconclusive results are not listed.
T/C for assorted molecules

{"columns": ["molecule", "T/C"],
 "data": [
  ["CC(C)(C)SC(=O)C1(C)OC1c1ccc([N+](=O)[O-])cc1 (stereo not given)", "97 % of control"],
  ["Nc1ncnc2nc(-c3ccc(OCc4ccccc4)cc3)[nH]c12", "95 % of control"],
  ["O=C1CCC(=O)N1N1C(=O)CCC1=O", "96 % of control"],
  ["Cc1ccc(N2CC(O)CSC2=Nc2ccccc2)cc1 (stereo not given)", "91 % of control"],
  ["CCOP(=O)(Cc1cccc2ccccc12)OCC", "100 % of control"],
  ["O=[N+]([O-])c1ccc(SC(=S)N(c2ccccc2)c2ccccc2)c([N+](=O)[O-])c1", "100 % of control"],
  ["NC(=O)c1nccnc1C(N)=O", "101 % of control"],
  ["O=C(c1ccccc1)c1cc(-c2ccccc2)nc2ccccc2c2ccccc2[nH]1", "100 % of control"],
  ["O=C(CC(=O)OCc1ccc([N+](=O)[O-])cc1)OCc1ccc([N+](=O)[O-])cc1", "93 % of control"],
  ["N#C/C(=C(\\N)c1ccccc1)c1ccccc1", "112 % of control"]
]}

----------
Tested on: CD2F1 mice, L1210 leukemia ip, survival T/C
test_summary: NCI In Vivo Anticancer Drug Screen. Data for tumor model L1210 Leukemia (intraperitoneal) in CD2F1 (CDF1) mice
test_context: endpoint: mean survival time; dose: 150.0 mg/kg/injection; schedule: Q01DX001 (ip); vehicle: saline; higher = longer survival
Toxic doses and inconclusive results are not listed.
T/C reference

{"columns": ["compound", "T/C"],
 "data": [
  ["CC(=O)NC1=C(Sc2ccc(C)cc2)C(=O)c2ccccc2C1=O", "98 % of control"],
  ["CC(C)NCCO", "100 % of control"],
  ["CC(C)NCc1ccc2c(c1)OCO2", "101 % of control"],
  ["CCCC(C)C1C(=O)N(C)C(=O)N(C)C1=O (centres undefined)", "103 % of control"],
  ["c1ccc(C(c2ccccc2)n2ccnc2)cc1", "101 % of control"],
  ["O=C(OCC(F)(F)F)C(Cl)(Cl)Cl", "107 % of control"],
  ["O=C(C1CC=C2c3ccccc3CCC2C1C(=O)N1CCCCC1)N1CCCCC1 (centres undefined)", "98 % of control"],
  ["Cc1ccnc(OCCCCCNCCS)c1", "98 % of control"],
  ["CC(=O)C12CC3CC1C2C3", "98 % of control"],
  ["CN1C2Cc3cc4c(cc3C1Cc1cc3c(cc12)OCO3)OCO4", "94 % of control"],
  ["CC(=O)CCN1Cc2cc3c(cc2C(O)C1)OCO3 (centres undefined)", "97 % of control"],
  ["CC(=O)Nc1nc(C)cs1", "97 % of control"],
  ["N#CC(=C1CCCCC1)c1ccccc1", "104 % of control"],
  ["CN(C)CC1CCCCC(Br)C1=O (centres undefined)", "107 % of control"]
]}

----------
Test system: CD2F1 mice, L1210 leukemia ip, survival T/C
test_summary: NCI In Vivo Anticancer Drug Screen. Data for tumor model L1210 Leukemia (intraperitoneal) in CD2F1 (CDF1) mice
test_context: endpoint: mean survival time; dose: 200.0 mg/kg/injection; schedule: Q01DX009 (ip); vehicle: saline with Tween-80; higher = longer survival
Toxic doses and inconclusive results are not listed.

{"columns": ["compound", "T/C"],
 "data": [
  ["O=C(CNC(=O)Nc1cccc([N+](=O)[O-])c1)N/N=C/c1ccccc1O", "89 % of control"],
  ["O=C(O)C(Cl)(c1ccccc1)C(Cl)c1ccccc1 (stereo not drawn)", "98 % of control"],
  ["CCCCCCCCCCCCCC(=O)N1CCOCC1", "96 % of control"],
  ["CC(C)(C)C(=O)CC(=O)C(C)(C)C.CC(C)(C)C(=O)CC(=O)C(C)(C)C.CC(C)(C)C(=O)CC(=O)C(C)(C)C.[Fe]", "97 % of control"],
  ["CN(C)c1ccc(CN2CCCN(Cc3ccc(N(C)C)cc3)C2c2cc(Cl)ccc2O)cc1", "93 % of control"],
  ["C=C(C)CON=C(c1ccccc1)c1ccccc1", "96 % of control"],
  ["CCN(C(=O)Nc1cccc(Cl)c1)c1ccccc1C", "97 % of control"],
  ["Cc1ccc(S(=O)(=O)N/N=C2/C=C3C/C(=N\\NS(=O)(=O)c4ccc(C)cc4)C=C3C2)cc1", "89 % of control"],
  ["COC1OC(CN2C(=O)c3ccccc3C2=O)C2OC(C)(C)OC12 (stereo not drawn)", "94 % of control"],
  ["CCCCCCCCCCCCCCCCCCc1ccc(O)cc1O", "101 % of control"],
  ["NC(=S)Nc1ccc(C23CCC(CC2)CC3)cc1", "109 % of control"],
  ["O=C(c1ccccc1)c1ccc2c(c1)-c1ccccc1-2", "94 % of control"],
  ["O=c1cn[nH]c2cc(Cl)ccc12", "101 % of control"],
  ["Cc1cc(CO)c(O)c(CO)c1", "91 % of control"],
  ["COC(=O)c1cc2ccccc2o1", "100 % of control"],
  ["O=C(O)C(NC1CCCCC1)c1ccccc1 (stereo not drawn)", "92 % of control"],
  ["O=C1NC(=O)C(Cc2ccccc2)C(=O)N1", "96 % of control"],
  ["CC1=NN(c2ccccc2)C(=O)C1CC1C(=O)N(c2ccccc2)N=C1C (stereo not drawn)", "107 % of control"]
]}

----------
Tested on: CD2F1 mice, L1210 leukemia ip, survival T/C
test_summary: NCI In Vivo Anticancer Drug Screen. Data for tumor model L1210 Leukemia (intraperitoneal) in CD2F1 (CDF1) mice
test_context: endpoint: mean survival time; dose: 400.0 mg/kg/injection; schedule: Q01DX009 (ip); vehicle: saline with Tween-80; higher = longer survival
Inconclusive results and toxic doses are left out.

{"columns": ["compound", "T/C"],
 "data": [
  ["COC(=O)C(I)C(OC)c1ccccc1 (configuration not stated)", "97 % of control"],
  ["N#C/C(=C1C=C/C(=N/O)C(Br)=C/1)c1ccccc1", "95 % of control"],
  ["CCc1ccc(OS(=O)(=O)c2cccc([N+](=O)[O-])c2)cc1", "102 % of control"],
  ["COc1cc2c(c3ccccc13)CCCC2=O", "97 % of control"],
  ["CS/C(N)=N\\C(=O)N(C)C", "103 % of control"],
  ["Cc1cnc(O[Si](C)(C)C)nc1O[Si](C)(C)C", "103 % of control"],
  ["CC1(C)OC1CS(=O)c1ccccc1 (configuration not stated)", "93 % of control"]
]}
